System: Eimeria tenella
Test: In vivo anti-coccidial activity expressed as number of the chicks cleared of Eimeria tenella lesions out of a group of five, at 50 ppm in the diet.
Format: functional
Measured endpoint: Activity

(Q) Please state recorded Activity (tested on Eimeria tenella) of C/C=C/CSc1ncnc2c1cnn2C1O[C@H](CO)[C@@H](O)[C@H]1O (stereo not given in full)
(A) 0

(Q) Try OC[C@H]1OC(n2ncc3c(SCC#Cc4ccccc4)ncnc32)[C@H](O)[C@@H]1O (stereo not given in full) next.
(A) 0

(Q) Request: O=P(O)(O)OC[C@H]1OC(n2ncc3c(SC/C=C/c4ccccc4)ncnc32)[C@H](O)[C@@H]1O (stereo not given in full)
(A) 5

(Q) Please give the result for OC[C@H]1OC(n2ncc3c(SC/C=C/c4ccc(OCc5ccccc5)cc4)ncnc32)[C@H](O)[C@@H]1O (stereo not given in full) too.
(A) 0

(Q) Field entry: OC[C@H]1OC(n2ncc3c(SC/C=C/c4ccc(Cl)cc4)ncnc32)[C@H](O)[C@@H]1O (stereo not given in full)
(A) 0

---

Tested on: Eimeria tenella
Assay: In vitro inhibitory activity against Eimeria tenella in embryonic chick liver cells.
Type: functional
Classify: rule met when MIC is strictly less than 0.08 µg/mL; rule not met when MIC is not.

(Q) Bench note: check whether COc1cc(/C=C/CSc2ncnc3c2cnn3C2O[C@H](CO)[C@@H](O)[C@H]2O)cc(OC)c1OC (stereo partly drawn) shows MIC below 0.08 µg/mL
(A) rule not met

(Q) Then this compound: O=P(O)(O)OC[C@H]1OC(n2ncc3c(SC/C=C/c4ccccc4)ncnc32)[C@H](O)[C@@H]1O (stereo partly drawn)
(A) rule met

(Q) Try this compound next: OC[C@H]1OC(n2ncc3c(SC/C=C/C=C/c4ccccc4)ncnc32)[C@H](O)[C@@H]1O (stereo partly drawn)
(A) rule met

(Q) Another compound: Cc1ccc(/C=C/CSc2ncnc3c2cnn3C2O[C@H](CO)[C@@H](O)[C@H]2O)cc1 (stereo partly drawn)
(A) rule not met

(Q) // next record OC[C@H]1OC(n2ncc3c(SCC#Cc4ccccc4)ncnc32)[C@H](O)[C@@H]1O (stereo partly drawn)
(A) rule met

(Q) One more compound: OC[C@H]1OC(n2ncc3c(SC/C=C/c4ccc(OCc5ccccc5)cc4)ncnc32)[C@H](O)[C@@H]1O (stereo partly drawn)
(A) rule not met

(Q) Consider next the compound OC[C@H]1OC(n2ncc3c(SC/C=C/c4ccc(Cl)cc4Cl)ncnc32)[C@H](O)[C@@H]1O (stereo partly drawn) in the same way.
(A) rule not met

---

Tested on: Eimeria tenella
Experiment: In vitro inhibitory activity against Eimeria tenella in embryonic chick liver cells.
Type: functional
Measured endpoint: MIC (µg/mL)
Answer in µg/mL, number only, no unit symbol.

(Q) MIC lookup needed for COc1ccc(/C=C/CSc2ncnc3c2cnn3C2O[C@H](CO)[C@@H](O)[C@H]2O)cc1 (stereo not given in full) , thanks.
(A) 1.25

(Q) Item: OC[C@H]1OC(n2ncc3c(SC/C=C/c4ccc(Cl)cc4)ncnc32)[C@H](O)[C@@H]1O (stereo not given in full)
(A) 0.31

(Q) Follow-up item: OC[C@H]1OC(n2ncc3c(SC/C=C/c4cccc(O)c4)ncnc32)[C@H](O)[C@@H]1O (stereo not given in full)
(A) 20

(Q) Repeat for the following compound: OC[C@H]1OC(n2ncc3c(SC/C=C/c4ccc(Cl)c(Cl)c4)ncnc32)[C@H](O)[C@@H]1O (stereo not given in full)
(A) 0.31

Data origin, for the record: ChEMBL document CHEMBL1122376
